Below: a set of entries, each annotated with reported IC50.
- Tested on: Human eIF4E (aa 28-217) / biotin labeled 4G2 peptide (Homo sapiens, UniProt P06730)
- Construct: Human eIF4E (aa 28-217) with a C-terminal His-tag
- Sequence (P06730 28-217): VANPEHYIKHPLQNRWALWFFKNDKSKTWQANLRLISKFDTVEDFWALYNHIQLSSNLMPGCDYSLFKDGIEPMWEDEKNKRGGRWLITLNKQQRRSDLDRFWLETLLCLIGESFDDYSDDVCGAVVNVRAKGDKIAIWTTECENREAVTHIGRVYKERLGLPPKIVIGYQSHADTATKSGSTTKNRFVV
- Test details: Human eIF4E/4G2 binding assay (TR-FRET)
- Applied conditions: TR-FRET eIF4E/4G2 peptide binding; 4 hours preincubation with eIF4E at room temperature

Molecule	Tested on	IC50
CC(C)c1nc(Nc2ncc(C(F)(F)F)cc2C(=O)O)sc1-c1cccc2ccccc12 [I-20]	Human eIF4E (aa 28-217) / biotin labeled 4G2 peptide (Homo sapiens, UniProt P06730)	500 to 1000 nM

Given CC(C)CCc1nc(Nc2cc(C3CCCC3)sc2C(=O)O)sc1-c1ccc(OC(F)(F)F)cc1 [I-18] , state its recorded IC50.
< 500 nM

Form field: reported IC50 of COc1ccc(-c2sc(Nc3ncc(C(F)(F)F)cc3C(=O)O)nc2C(C)C)c(OC)c1 [I-47]
> 1000 nM

Sample CC(C)c1nc(Nc2ncc(C(F)(F)F)cc2C(=O)O)sc1-c1ccc(Cl)cc1F [I-37] — what was its IC50?
500 to 1000 nM

So what's the measured IC50 for this one? CC(C)c1nc(Nc2ncc(C(F)(F)F)cc2C(=O)O)sc1-c1ccc(C(C)(C)C)cc1 [I-35]
< 500 nM

Dear colleague, I am looking for the recorded IC50 of the following molecule: CC(C)CCc1nc(Nc2ncc(C(F)(F)F)cc2C(=O)O)sc1-c1ccc(-c2ccccn2)cc1 [I-15]
< 500 nM

Fill in the blank: the reported IC50 of CC(C)CCc1nc(Nc2ncc(C(F)(F)F)cc2C(=O)O)sc1-c1ccc(Cl)c(Cl)c1 [I-4] is ____.
< 500 nM

Recorded IC50 of COc1cc(Cl)ccc1-c1sc(Nc2ncc(C(F)(F)F)cc2C(=O)O)nc1C(C)C [I-40] , please.
500 to 1000 nM

* * *

- Tested on: Human eIF4E (aa 28-217) / biotin labeled 4G2 peptide (Homo sapiens, UniProt P06730)
- Construct: Human eIF4E (aa 28-217) with a C-terminal His-tag
- Test details: Human eIF4E/4G2 binding assay (TR-FRET)
- Applied conditions: TR-FRET eIF4E/4G2 peptide binding; 4 hours preincubation with eIF4E at room temperature
Reported IC50 is given for each of the following compounds.

Smiles structure	IC50
COc1ccc(-c2sc(Nc3ncc(-c4cccs4)cc3C(=O)O)nc2C2CC2)cc1	< 500 nM
CC(C)CCc1nc(Nc2cc(C3CCCC3)sc2C(=O)O)sc1-c1ccc(Oc2ccccc2)cc1	< 500 nM
CC(C)Cc1nc(Nc2ncc(C(F)(F)F)cc2C(=O)O)sc1-c1ccc2ccccc2c1	< 500 nM
CC(C)CCc1nc(Nc2cc(-c3ccccc3)sc2C(=O)O)sc1-c1ccc(Cl)c(Cl)c1	< 500 nM
CC(C)c1nc(Nc2ncc(C(F)(F)F)cc2C(=O)O)sc1-c1ccc(-c2ccccc2)cc1	< 500 nM

I'd like to know its IC50. The compound in question is CC(C)c1nc(Nc2ncc(C(F)(F)F)cc2C(=O)O)sc1-c1ccc(Cl)c(Cl)c1
< 500 nM

Name the recorded IC50 for CC(C)c1nc(Nc2ncc(C(F)(F)F)cc2C(=O)O)sc1-c1ccc(C(F)(F)F)c(F)c1 .
< 500 nM

Consider the compound CC(C)c1nc(Nc2ncc(C(F)(F)F)cc2C(=O)O)sc1-c1csc2ccccc12 and give its measured IC50.
500 to 1000 nM

Which measured IC50 value corresponds to CC(C)c1nc(Nc2ncc(-c3cccs3)cc2C(=O)O)sc1-c1ccc(Cl)c(Cl)c1 ?
< 500 nM

Entry COc1ccc(-c2sc(Nc3ncc(-c4cccs4)cc3C(=O)O)nc2C(C)C)cc1Cl : reported IC50 = ?
500 to 1000 nM

// query IC50 value for entry CC(C)c1nc(Nc2ncc(C(F)(F)F)cc2C(=O)O)sc1-c1ccc(OC(F)F)cc1
500 to 1000 nM

Query (compound): CC(C)c1nc(Nc2ncc(C(F)(F)F)cc2C(=O)O)sc1-c1ccc(C(F)(F)F)cc1 ; field requested: IC50
500 to 1000 nM

Looking for the measured IC50 of COc1ccc(-c2sc(Nc3ncc(C(F)(F)F)cc3C(=O)O)nc2C(C)C)cc1Cl , can you help?
500 to 1000 nM

Value lookup for IC50; key = CC(C)CCc1nc(Nc2ccsc2C(=O)O)sc1-c1ccc(Cl)c(Cl)c1
< 500 nM

State the recorded IC50 for this entry: CC(C)c1nc(Nc2ncc(C(F)(F)F)cc2C(=O)O)sc1-c1ccsc1
500 to 1000 nM
